Target: ferroportin tagged at the C-terminus with green fluorescent protein (Fpn-GFP) (Mus musculus)
Construct: expressed in transfected cells; host or cells: ECR293/Fpn-GFP (stably transfected, ponasterone-inducible)
Sequence (Q9JHI9 whole entry): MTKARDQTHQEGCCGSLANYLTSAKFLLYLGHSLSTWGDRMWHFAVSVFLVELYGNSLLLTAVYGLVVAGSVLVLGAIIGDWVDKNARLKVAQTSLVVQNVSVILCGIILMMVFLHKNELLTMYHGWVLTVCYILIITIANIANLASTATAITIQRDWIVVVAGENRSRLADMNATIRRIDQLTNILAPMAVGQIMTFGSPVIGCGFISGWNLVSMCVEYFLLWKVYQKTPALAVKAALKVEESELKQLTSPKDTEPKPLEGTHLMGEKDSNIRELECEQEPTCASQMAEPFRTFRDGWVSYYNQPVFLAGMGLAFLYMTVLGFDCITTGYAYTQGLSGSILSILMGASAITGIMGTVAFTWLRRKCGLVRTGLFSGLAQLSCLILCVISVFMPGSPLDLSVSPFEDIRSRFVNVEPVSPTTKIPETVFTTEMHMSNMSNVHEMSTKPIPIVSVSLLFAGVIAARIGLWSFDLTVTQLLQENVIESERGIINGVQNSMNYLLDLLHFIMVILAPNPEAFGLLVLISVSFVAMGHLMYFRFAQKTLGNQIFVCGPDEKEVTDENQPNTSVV
Assay: Flow cytometry of ferroportin-GFP degradation in ECR293/Fpn-GFP cells
Format: cell-based
Settings: read-out: EC50 (nM) in vitro; Table 3
Procedure: In vitro activity may be measured by the dose-dependent loss of fluorescence of cells engineered to display ferroportin fused to green fluorescent protein as in Nemeth et al. (2006) Blood 107:328-33. […] The activity of peptides of the present invention was measured by flow cytometry as previously described. […] Cells were then trypsinized and resuspended at 1×10^6 cells/ml, and the intensity of green fluorescence was analyzed by flow cytometry. […]
Non-standard residues stand in square brackets, D forms with d. Residues, ends and D or L forms follow the SMILES beside them. *: point of attachment. PEG12 = NCCOCCOCCOCCOCCOCCOCCOCCOCCOCCOCCOCCOCCC(=O)O; dDip = N[C@@H](C(=O)O)C(c1ccccc1)c1ccccc1; Palmitoyl = CCCCCCCCCCCCCCCC(=O)*
# maps each entry to its EC50
Property measured: EC50 (nM)

[[record]]
compound = "CCCCCCCCCCCCCCCC(=O)NCCOCCOCCOCCOCCOCCOCCOCCOCCOCCOCCOCCOCCC(=O)N[C@@H](C(=O)N[C@@H](C(=O)N[C@H](CS)C(=O)N[C@@H](C(=O)N1CCC[C@@H]1C(=O)N[C@@H](C(=O)N[C@H](Cc1c[nH]cn1)C(=O)N[C@@H](C(=O)N[C@H](CC(=O)O)C(N)=O)[C@H](C)O)C(c1ccccc1)c1ccccc1)[C@H](C)CC)[C@H](C)CC)C(c1ccccc1)c1ccccc1 [PR48, R4-Dpa-I-C-I-P-Dpa-H-T-D] ({Palmitoyl-PEG12}-[dDip][dI][dC][dI][dP][dDip][dH][dT][dD]-NH2)"
readout_qualifier = "="
endpoint_value = 50

[[record]]
compound = "CCCCCCCCCCCCCCCC(=O)NCCOCCOCCOCCOCCOCCOCCOCCOCCOCCOCCOCCOCCC(=O)N[C@H](Cc1ccccc1)C(=O)N[C@@H](C(=O)N[C@H](CS)C(=O)N[C@@H](C(=O)N1CCC[C@@H]1C(=O)N[C@@H](C(=O)N[C@H](Cc1c[nH]cn1)C(=O)N[C@@H](C(=O)N[C@H](CC(=O)O)C(N)=O)[C@H](C)O)C(c1ccccc1)c1ccccc1)C(C)C)C(C)C [PR51, R4-F-V-C-V-P-Dpa-H-T-D] ({Palmitoyl-PEG12}-[dF][dV][dC][dV][dP][dDip][dH][dT][dD]-NH2)"
readout_qualifier = "="
endpoint_value = 100

[[record]]
compound = "CCCCCCCCCCCCCCCC(=O)NCCOCCOCCOCCOCCOCCOCCOCCOCCOCCOCCOCCOCCC(=O)N[C@H](Cc1ccccc1)C(=O)N[C@H](CC(C)C)C(=O)N[C@H](CS)C(=O)N[C@H](CC(C)C)C(=O)N1CCC[C@@H]1C(=O)N[C@@H](C(=O)N[C@H](Cc1c[nH]cn1)C(=O)N[C@@H](C(=O)N[C@H](CC(=O)O)C(N)=O)[C@H](C)O)C(c1ccccc1)c1ccccc1 [PR52, R4-F-L-C-L-P-Dpa-H-T-D] ({Palmitoyl-PEG12}-[dF][dL][dC][dL][dP][dDip][dH][dT][dD]-NH2)"
readout_qualifier = "<"
endpoint_value = 10

